Test system: N5-12G6 riboswitch
Assay: Firefly luciferase assay, N5-12G6 riboswitch in HEK293 cells
Conditions: Homo sapiens, HEK293, read-out: Fold induction 2 μM (HEK), 12G6 riboswitch, luciferase, HEK293, 2 μM
Bucketed by reported fold induction at 2 µM, buckets being low (below 6), intermediate (6 to below 40), high (40 or more)

*Q* Class for c1ccc2c(N3CCNCC3)c(NCc3ccc4nccnc4c3)cnc2c1 [compound 115] ?
*A* high

*Q* Class for Clc1cc(CNc2cnccc2N2CCNCC2)cc2nccnc12 [compound 049] ?
*A* low

*Q* Class for Cc1cc(CNc2cnccc2N2CCNCC2)cc2nccnc12 [compound 068] ?
*A* low

*Q* Class for Cc1cncc(NCc2cc(Cl)c3nccnc3c2)c1N1CCNCC1 [compound 085] ?
*A* low

*Q* Class for Cc1cncc(NCc2ccc3nccnc3c2)c1N1CCNCC1 [compound 023] ?
*A* high

*Q* Class for c1cnc2cc(CNc3cnc4[nH]ccc4c3N3CCNCC3)ccc2n1 [compound 114] ?
*A* high

*Q* Class for COc1cc(N2CCNCC2)c(NCc2ccc3nccnc3c2)cn1 [compound 116] ?
*A* high

*Q* Class for CN(C)CCOc1ccncc1NCc1ccc2nccnc2c1 [compound 047] ?
*A* low

*Q* Class for Fc1cncc(NCc2cc3nccnc3cc2Cl)c1N1CCCNCC1 [compound 096] ?
*A* intermediate

*Q* Class for N#Cc1ccc(N2CCNCC2)c(NCc2ccc3nccnc3c2)c1 [compound 048] ?
*A* low

*Q* Class for Fc1cc2nccnc2cc1CNc1cncc(Cl)c1N1CCNCC1 [compound 052] ?
*A* intermediate

*Q* Class for Clc1cncc(NCc2ccc3nccnc3c2)c1OC1CNC1 [compound 027] ?
*A* high

*Q* Class for COc1cncc(NCc2ccc3nccnc3c2)c1N1CCNCC1 [compound 075] ?
*A* intermediate

*Q* Class for C[C@@H]1CN(c2ccncc2NCc2cc(F)c3nccnc3c2)CCN1 [compound 060] ?
*A* low

*Q* Class for Fc1cncc(NCc2ccc3nccnc3c2)c1N1CCNCC1 [compound 073] ?
*A* high

*Q* Class for COc1cc2nccnc2cc1CNc1cnccc1N1CCNCC1 [compound 072] ?
*A* intermediate

*Q* Class for C[C@@H]1CNCCN1c1ccncc1NCc1cc(F)c2nccnc2c1 [compound 065] ?
*A* intermediate

*Q* Class for Clc1cc2nccnc2cc1CNc1cnccc1OC1CNC1 [compound 029] ?
*A* high

*Q* Class for Fc1cc(CNc2cnccc2OC2CNC2)cc2nccnc12 [compound 028] ?
*A* intermediate

* * *

Test system: luciferase gene expression in HEK 293 cells in response to Comp. 004
Test: Screen of riboswitch constructs with 12C6-1 variant aptamers (libraries N1-N5) against Comp. 004, luciferase in HEK 293 cells
Assay type: cell-based, human
Settings: library N5 variant aptamers (L5, X16-X21 randomized) of 12C6-1 in riboswitch constructs; in response to Comp. 004 treatment; HEK 293 cells
Give measured Fold (induction of luciferase gene expression) for each item. Keep answers brief.
Only the number, expressed in fold, is required.

*Q* Fill blank: measured Fold (induction of luciferase gene expression) of the substance N5_6A8 (CTGGGGAGTCCT; chemistry not given here) is ____.
*A* 1252.2

*Q* Fill blank: measured Fold (induction of luciferase gene expression) of the substance N5_1F4 (CTGGGGAGTCCT; chemistry not given here) is ____.
*A* 958.5

*Q* Fill blank: measured Fold (induction of luciferase gene expression) of the substance N5_1B6 (CTGGGGAGTCCT; chemistry not given here) is ____.
*A* 1381.8

*Q* Fill blank: measured Fold (induction of luciferase gene expression) of the substance N5_9F1 (DNA CTGGGGAGTCCT; chemistry not given here) is ____.
*A* 875.6

*Q* Fill blank: measured Fold (induction of luciferase gene expression) of the substance N5_1A3 (CTGGGGAGTCCT; chemistry not given here) is ____.
*A* 228.1

*Q* Fill blank: measured Fold (induction of luciferase gene expression) of the substance N5_6G10 (CTGGGGAGTCCT; chemistry not given here) is ____.
*A* 1262.0

*Q* Fill blank: measured Fold (induction of luciferase gene expression) of the substance N5_1B10 (CTGGGGAGTCCT; chemistry not given here) is ____.
*A* 1013.6

*Q* Fill blank: measured Fold (induction of luciferase gene expression) of the substance N5_3C10 (CTGGGGAGTCCT; chemistry not given here) is ____.
*A* 751.6

*Q* Fill blank: measured Fold (induction of luciferase gene expression) of the substance N5_7G3 (DNA CTGGGGAGTCCT; chemistry not given here) is ____.
*A* 799.3

*Q* Fill blank: measured Fold (induction of luciferase gene expression) of the substance N5_12E5 (CTGGGGAGTCCT; chemistry not given here) is ____.
*A* 1898.6

* * *

Tested on: luciferase gene expression in HEK 293 cells in response to Comp. 004
Experiment: Screen of riboswitch constructs with 12C6-1 variant aptamers (libraries N1-N5) against Comp. 004, luciferase in HEK 293 cells
Type: cell-based, human
Conditions: library N5 variant aptamers (L5, X16-X21 randomized) of 12C6-1 in riboswitch constructs; in response to Comp. 004 treatment; HEK 293 cells
Rule: Fold (induction of luciferase gene expression) below 900 fold gives label 1. Equal to or above 900 fold gives label 0.

*Q* Say whether its Fold (induction of luciferase gene expression) is strictly beneath 900 fold. Entry: N5_2D9 (CTGGGGAGTCCT; chemistry not given here)
*A* label 1

*Q* Say whether its Fold (induction of luciferase gene expression) is strictly beneath 900 fold. Entry: N5_1F12 (CTGGGGAGTCCT; chemistry not given here)
*A* label 0

*Q* Say whether its Fold (induction of luciferase gene expression) is strictly beneath 900 fold. Entry: N5_7D11 (DNA CTGGGGAGTCCT; chemistry not given here)
*A* label 1

*Q* Say whether its Fold (induction of luciferase gene expression) is strictly beneath 900 fold. Entry: N5_2C5 (CTGGGGAGTCCT; chemistry not given here)
*A* label 0

*Q* Say whether its Fold (induction of luciferase gene expression) is strictly beneath 900 fold. Entry: N5_13C10 (CTGGGGAGTCCT; chemistry not given here)
*A* label 0

*Q* Say whether its Fold (induction of luciferase gene expression) is strictly beneath 900 fold. Entry: N5_7D2 (DNA CTGGGGAGTCCT; chemistry not given here)
*A* label 0

*Q* Say whether its Fold (induction of luciferase gene expression) is strictly beneath 900 fold. Entry: N5_7H11 (DNA CTGGGGAGTCCT; chemistry not given here)
*A* label 0

*Q* Say whether its Fold (induction of luciferase gene expression) is strictly beneath 900 fold. Entry: N5_1C11 (CTGGGGAGTCCT; chemistry not given here)
*A* label 1

*Q* Say whether its Fold (induction of luciferase gene expression) is strictly beneath 900 fold. Entry: N5_9G7 (DNA CTGGGGAGTCCT; chemistry not given here)
*A* label 0

*Q* Say whether its Fold (induction of luciferase gene expression) is strictly beneath 900 fold. Entry: N5_1A1 (CTGGGGAGTCCT; chemistry not given here)
*A* label 1

*Q* Say whether its Fold (induction of luciferase gene expression) is strictly beneath 900 fold. Entry: N5_1F2 (CTGGGGAGTCCT; chemistry not given here)
*A* label 1

* * *

Tested on: N5-12G6 riboswitch
Assay: Firefly luciferase assay, N5-12G6 riboswitch in HEK293 cells
Details: Homo sapiens, HEK293, read-out: Fold induction 2 μM (HEK), 12G6 riboswitch, luciferase, HEK293, 2 μM
Threshold rule: fold induction at 2 µM greater than or equal to 30 is Satisfied; below that, Not satisfied.

*Q* # check: fold induction at 2 µM of Clc1cc2nccnc2cc1CNc1cnccc1N1C[C@@H]2C[C@H]1CN2 [compound 097] is greater than or equal to 30
*A* Not satisfied

*Q* # check: fold induction at 2 µM of Cc1cc(N2CCNCC2)c(NCc2ccc3nccnc3c2)cn1 [compound 118] is greater than or equal to 30
*A* Not satisfied

*Q* # check: fold induction at 2 µM of c1cc(O[C@@H]2CCNC2)c(NCc2ccc3nccnc3c2)cn1 [compound 021] is greater than or equal to 30
*A* Satisfied

*Q* # check: fold induction at 2 µM of Fc1cc2nccnc2cc1CNc1cnccc1O[C@@H]1CCNC1 [compound 107] is greater than or equal to 30
*A* Satisfied

*Q* # check: fold induction at 2 µM of Clc1cncc(NCc2ccc3nccnc3c2)c1O[C@@H]1CCNC1 [compound 110] is greater than or equal to 30
*A* Satisfied

*Q* # check: fold induction at 2 µM of Cc1cncc(NCc2ccc3nccnc3c2)c1N1CCCNCC1 [compound 094] is greater than or equal to 30
*A* Satisfied

*Q* # check: fold induction at 2 µM of COc1cc(CNc2cnccc2N2CCNCC2)cc2nccnc12 [compound 071] is greater than or equal to 30
*A* Not satisfied

*Q* # check: fold induction at 2 µM of Fc1cc(CNc2cnccc2O[C@@H]2CCNC2)cc2nccnc12 [compound 105] is greater than or equal to 30
*A* Satisfied

*Q* # check: fold induction at 2 µM of Fc1cncc(NCc2cc(Cl)c3nccnc3c2)c1N1CCNCC1 [compound 081] is greater than or equal to 30
*A* Not satisfied

*Q* # check: fold induction at 2 µM of Clc1cc(CNc2cnccc2O[C@@H]2CCNC2)cc2nccnc12 [compound 106] is greater than or equal to 30
*A* Not satisfied
